Would you mind telling me the reported change in vivo at 25 mg/kg of each entry?
test system: C57BL/6J mice; assay: Glucokinase activator in vivo screen: blood glucose lowering after oral gavage in mice; settings: Mus musculus; vs. control at 2 hours post 25 mg/kg oral dose, C57B6 mice; read-out: % gluc lowering @ 2 H

Data request, read-out change in vivo at 25 mg/kg, for CC(C)OCCn1ccc(NC(=O)[C@H](CC2CCCC2)N2Cc3c(cccc3C(F)(F)F)C2=O)n1 [Example 17]
-40.2%

What change in vivo at 25 mg/kg value was documented for this molecule, O=C(Nc1ccn(C[C@@H](O)CO)n1)[C@H](CC1CCCC1)N1Cc2c(cccc2C(F)(F)F)C1=O [Example 5] ?
-50.1%

Report change in vivo at 25 mg/kg for COC(C)(C)Cn1ccc(NC(=O)[C@H](CC2CCCC2)N2Cc3c(cccc3C(F)(F)F)C2=O)n1 [Example 7] please.
-48.2%

Quick one: change in vivo at 25 mg/kg for Cn1ccc(NC(=O)[C@H](CC2CCCC2)N2Cc3c(cccc3C(F)(F)F)C2=O)n1 [Example 1] ?
-39.8%

I have this molecule here, O=C(Nc1cnc([C@H](O)CO)cn1)[C@H](CC1CCCC1)N1Cc2c(cccc2C(F)(F)F)C1=O [Example 21] , and I need its recorded change in vivo at 25 mg/kg.
-36.6%

GET /values?readout=change in vivo at 25 mg/kg&item= O=C(Nc1ccn(C[C@H](O)CO)n1)[C@H](CC1CCCC1)N1Cc2c(cccc2C(F)(F)F)C1=O [Example 6]
-48.3%

# get_value(readout='change in vivo at 25 mg/kg', item= O=C(Nc1ccn(CCO)n1)[C@H](CC1CCCC1)N1Cc2c(cccc2C(F)(F)F)C1=O [Example 2] )
-38.8%

// returns reported change in vivo at 25 mg/kg for input COCCn1ccc(NC(=O)[C@H](CC2CCCCC2)N2Cc3c(F)cccc3C2=O)n1 [Example 18]
-25.4%

Requested field: change in vivo at 25 mg/kg. Item: O=C(Nc1cnccn1)[C@H](CC1CCCC1)N1Cc2c(cccc2C(F)(F)F)C1=O [Example 15]
-22.5%
